Recorded pIC50 by entry
- subject.of.test: NRAS Q61K (Homo sapiens (Human), UniProt P01111+P62937, Q61K)
- Sequence (P01111 whole entry Q61K): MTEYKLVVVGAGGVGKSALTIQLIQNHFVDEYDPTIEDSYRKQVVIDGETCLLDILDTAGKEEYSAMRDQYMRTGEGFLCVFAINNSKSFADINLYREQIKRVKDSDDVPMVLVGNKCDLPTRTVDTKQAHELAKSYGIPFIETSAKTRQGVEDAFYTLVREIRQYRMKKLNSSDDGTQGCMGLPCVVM
- Sequence (P62937 whole entry): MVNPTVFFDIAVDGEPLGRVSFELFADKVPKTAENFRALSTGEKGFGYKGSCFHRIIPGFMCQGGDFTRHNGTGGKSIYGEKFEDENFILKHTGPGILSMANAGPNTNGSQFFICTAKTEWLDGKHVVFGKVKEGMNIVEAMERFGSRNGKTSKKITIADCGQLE
- assay.info: Ras-Raf (BRAF RBD) disruption / FRET / MOA assay, NRAS Q61K
- Assay type: biochemical
- conditions.used: NRAS Q61K; Ras-Raf disruption/FRET/MOA assay; read-out: IC50* NRAS Q61K FRET data
pIC50: −log10 of the molar value.
metric: pIC50

[[record]]
compound = "C=CC(=O)N1CCO[C@H]2CN(C(=O)N(C)[C@H](C(=O)N[C@H]3Cc4cc(C(F)F)cc(n4)-c4ccc5c(c4)c(c(-c4cccnc4[C@H](C)OC)n5CC(F)(F)F)CC(C)(C)COC(=O)[C@@H]4CCCN(N4)C3=O)C(C)C)C[C@H]21 (atropisomer, axis not shown)"
result = "5.00 to 6.00"

[[record]]
compound = "CCn1c(-c2cccnc2[C@H](C)OC)c2c3cc(ccc31)-c1cccc(c1)C[C@H](NC(=O)[C@H](C(C)C)N(C)C(=O)C1(F)CCN(C(=O)C#CC(C)(C)N(C)C)CC1)C(=O)N1CCC[C@H](N1)C(=O)OCC(C)(C)C2 (atropisomer, axis not shown)"
result = "6.00 to 7.00"

[[record]]
compound = "C=CC(=O)N1CC[C@H](C(=O)N(C)[C@H](C(=O)N[C@H]2C[C@H]3CN(CCO3)c3ccc4c(c3)c(c(-c3cccnc3[C@H](C)OC)n4CC)CC(C)(C)COC(=O)[C@@H]3CCCN(N3)C2=O)C(C)C)C1 (atropisomer, axis not shown)"
result = "< 5.00"

[[record]]
compound = "C=C(OC)C(=O)N1CC2(CCN(C(=O)N(C)[C@H](C(=O)N[C@H]3Cc4nc(cs4)-c4ccc5c(c4)c(c(-c4cccnc4[C@H](C)OC)n5CC)CC(C)(C)COC(=O)[C@@H]4CCCN(N4)C3=O)C(C)C)CC2)C1 (atropisomer, axis not shown)"
result = "7.00 to 8.00"

[[record]]
compound = "C=CC(=O)N1CC[C@@]2(CCN(C(=O)N(C)[C@H](C(=O)N[C@H]3Cc4nc(cs4)-c4ccc5c(c4)c(c(-c4cccnc4[C@H](C)OC)n5CC)CC(C)(C)COC(=O)[C@@H]4CCCN(N4)C3=O)C(C)C)C2)C1 (atropisomer, axis not shown)"
result = "7.00 to 8.00"

[[record]]
compound = "C=CC(=O)N1CCOC2(CCN(C(=O)N(C)[C@H](C(=O)N[C@H]3Cc4cccc(c4)-c4ccc5c(c4)c(c(-c4cccnc4[C@H](C)OC)n5CC(F)(F)F)CC(C)(C)COC(=O)[C@@H]4CCCN(N4)C3=O)C(C)C)CC2)C1 (atropisomer, axis not shown)"
result = "6.00 to 7.00"

[[record]]
compound = "CCn1c(-c2cccnc2[C@H](C)OC)c2c3cc(ccc31)N1CCC[C@@H](C[C@H](NC(=O)[C@@H](COC3CN(C(=O)C#CC(C)(C)N(C)C)C3)C(C)C)C(=O)N3CCC[C@H](N3)C(=O)OCC(C)(C)C2)C1 (atropisomer, axis not shown)"
result = "< 5.00"

[[record]]
compound = "C=CC(=O)N1CC[C@H](C(=O)N(C)[C@H](C(=O)N[C@H]2Cc3cc(O)cc(c3)-c3ccc4c(c3)c(c(-c3cc(N5CC(OC)C5)ccn3)n4CC)CC(C)(C)COC(=O)[C@@H]3CCCN(N3)C2=O)C(C)C)C1"
result = "5.00 to 6.00"

[[record]]
compound = "C=CC(=O)C1C[C@@H](C(=O)N(C)[C@H](C(=O)N[C@H]2Cc3cc(O)cc(c3)-c3ccc4c(n3)c(c(-c3ccccc3CCOC)n4CC)CC(C)(C)COC(=O)[C@@H]3CCCN(N3)C2=O)C(C)C)CN1 (stereo partly drawn)"
result = "5.00 to 6.00"

[[record]]
compound = "C=CC(=O)N1CCC2(CC1)CN(C(=O)N(C)[C@H](C(=O)N[C@H]1Cc3nc(cs3)-c3ccc4c(c3)c(c(-c3cccnc3[C@H](C)OC)n4CC)CC(C)(C)COC(=O)[C@@H]3CCCN(N3)C1=O)C(C)C)C2 (atropisomer, axis not shown)"
result = "7.00 to 8.00"

[[record]]
compound = "C=CC(=O)N1CC(OC[C@H](C(=O)N[C@H]2C[C@H]3CN(CCO3)c3ccc4c(c3)c(c(-c3cccnc3[C@H](C)OC)n4CC(F)(F)F)CC(C)(C)COC(=O)[C@@H]3CCCN(N3)C2=O)C(C)C)C1 (atropisomer, axis not shown)"
result = "< 5.00"

[[record]]
compound = "C=CC(=O)N1CCOC2(CCN(C(=O)N(C)[C@H](C(=O)N[C@H]3C[C@H]4CN(CCO4)c4ccc5c(c4)c(c(-c4cccnc4[C@H](C)OC)n5CC)CC(C)(C)COC(=O)[C@@H]4CCCN(N4)C3=O)C(C)C)CC2)C1"
result = "5.00 to 6.00"

[[record]]
compound = "C=CC(=O)N1CC[C@H](C(=O)N(C)[C@H](C(=O)N[C@H]2Cc3cccc(c3)-c3ccc4c(c3)c(c(-c3cccnc3[C@H](C)OC)n4CC(F)(F)F)CC(C)(C)COC(=O)[C@@H]3CCCN(N3)C2=O)C(C)C)C1 (atropisomer, axis not shown)"
result = "5.00 to 6.00"

[[record]]
compound = "CCn1c(-c2cccnc2[C@H](C)OC)c2c3cc(ccc31)-c1csc(n1)C[C@H](NC(=O)[C@H](C(C)C)N(C)C(=O)N1CC(N(C)C(=O)/C=C/CN(C)C)C1)C(=O)N1CCC[C@H](N1)C(=O)OCC(C)(C)C2 (atropisomer, axis not shown)"
result = "7.00 to 8.00"

[[record]]
compound = "C=CC(=O)N1CC[C@H](C(=O)N(C)[C@H](C(=O)N[C@H]2Cc3cc(C)cc(c3)-c3ccc4c(c3)c(c(-c3cccnc3[C@H](C)OC)n4CC)CC(C)(C)COC(=O)[C@@H]3CCCN(N3)C2=O)C(C)C)C1 (atropisomer, axis not shown)"
result = "5.00 to 6.00"

